Study System: human CRHR2 (Homo sapiens, UniProt Q13324)
Construct: expressed in transfected cells
Sequence (Q13324 1-411): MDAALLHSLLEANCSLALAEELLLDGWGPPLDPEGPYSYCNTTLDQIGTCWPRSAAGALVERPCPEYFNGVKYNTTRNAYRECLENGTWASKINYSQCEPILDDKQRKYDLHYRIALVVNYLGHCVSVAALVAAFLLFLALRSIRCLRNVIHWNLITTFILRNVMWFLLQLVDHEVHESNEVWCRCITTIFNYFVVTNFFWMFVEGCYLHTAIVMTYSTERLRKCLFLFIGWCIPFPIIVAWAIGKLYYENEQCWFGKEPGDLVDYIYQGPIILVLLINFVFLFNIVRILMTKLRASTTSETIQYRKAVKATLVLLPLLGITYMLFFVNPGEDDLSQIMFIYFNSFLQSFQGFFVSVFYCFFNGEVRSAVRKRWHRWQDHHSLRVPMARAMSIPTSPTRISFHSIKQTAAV
Test Summary: cAMP assay in h-CRHR2 transfected SK-N-MC cells
Type: cell-based
Settings: Table 13; h-SCP control pA50 minus test compound pA50 within same assay batch
Description: The concentration required for 50% maximum effect (A50) was 0.4 nM. Human CRHR1 (accession number X72304) or CRHR2 (accession number U34587) were cloned into pcDNA3.1/Zeo expression vector and stably transfected into SK-N-MC cells by electroporation. […] Media containing released intracellular cAMP was transferred to a 96-well flash plate coated with scintillant fluid containing an anti-cAMP antibody. […] [^125I]-cAMP was measured on a TopCount scintillation counter (Perkin Elmer, MA, U.S.A). […]
No end group written: not given here.
Readout Type: Log DR

Example entries begin here.
1) TKFTLSLDVPTNIMNLLFNIAKAKNLRAQAAANAHLMAQC-NH2 [SEQ ID NO: 41] :: 2.07
2) TKFTLSLDVPTNIMNLLFNIAKCKNLRAQAAANAHLMAQI-NH2 [SEQ ID NO: 24] :: 0.74
3) TKFTLSLDVPTNIMNLLFNIAKAKNLRAQAAANAHCMAQI-NH2 [SEQ ID NO: 37] :: 1.05

P: TKFTLSLDVPTNICNLLFNIAKAKNLRAQAAANAHLMAQI-NH2 [SEQ ID NO: 15]
Q: TKFTLCLDVPTNIMNLLFNIAKAKNLRAQAAANAHLMAQI-NH2 [SEQ ID NO: 7]
R: TKFTLSLDVPTNIMNLLFCIAKAKNLRAQAAANAHLMAQI-NH2 [SEQ ID NO: 20]
S: TKFTLSLDVPTNIMNCLFNIAKAKNLRAQAAANAHLMAQI-NH2 [SEQ ID NO: 17]
Problem: # rank_down: sort by Log DR, max first Arrange the labels as the request states and list them.
Result: Q, P, R, S

1: TKFTLSLDVPTNIMNLLFNIAKAKNLRAQCAANAHLMAQI-NH2 [SEQ ID NO: 31]
2: TKFTLSLDVPTNIMCLLFNIAKAKNLRAQAAANAHLMAQI-NH2 [SEQ ID NO: 16]
3: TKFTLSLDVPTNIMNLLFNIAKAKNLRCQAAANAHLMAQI-NH2 [SEQ ID NO: 29]
Problem: # rank_down: sort by Log DR, max first Arrange the labels as the request states and list them.
Result: 1, 2, 3
